System: M. tuberculosis H37Rv growth inhibition
Assay: Mycobacterium tuberculosis H37Rv growth inhibition, putative kinase inhibitor library, confirmatory dose response (AID 2842);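 note: bacteria incubated one week before Alamar blue readout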
Reported IC90 values follow for various molecules

CC(C)N1CCc2c(sc(NC(=O)c3nc4ccccc4s3)c2C(N)=O)C1 ... 12.9 mg/L
CCOc1cc(-c2nnc(NC(=O)c3cccs3)o2)cc(OCC)c1OCC ... 3.02 mg/L

In: I have this molecule here, OCc1nc2ccccc2n1CC(O)COc1ccc(Br)cc1 (stereo not given) , and I need its recorded IC90.
Out: 10.2 mg/L

In: I have this molecule here, O=C(Nc1nnc(-c2ccc(Br)cc2)o1)c1ccc(S(=O)(=O)N2CCOCC2)cc1 , and I need its recorded IC90.
Out: 5.28 mg/L

In: I have this molecule here, O=C(Nc1nnc(-c2ccccc2Cl)o1)c1nc2ccccc2s1 , and I need its recorded IC90.
Out: 1.75 mg/L

----------
Tested on: M. tuberculosis H37Rv growth inhibition
Assay: Mycobacterium tuberculosis H37Rv growth inhibition, putative kinase inhibitor library, confirmatory dose response (AID 2842);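 note: bacteria incubated one week before Alamar blue readout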
measure: IC90

Example cases with answers are listed next.
Cc1ccc(C)c(-c2nnc(NC(=O)c3ccc(S(=O)(=O)N(C)c4ccccc4)cc3)o2)c1 ... 13.3 µg/mL
O=C1CN(C(=O)c2cccc3ccccc23)C(c2ccc(F)cc2)c2cc(Br)ccc2N1 (stereo not given) ... 10.2 µg/mL

In: I have this molecule here, O=C(CN1C(=O)CCC1=O)Nc1nnc(-c2ccc3c(c2)CCCC3)o1 , and I need its recorded IC90.
Out: 27.6 µg/mL

In: I have this molecule here, COc1ccccc1C(=O)Nc1nnc(-c2ccc(Cl)cc2)o1 , and I need its recorded IC90.
Out: 3.86 µg/mL

In: I have this molecule here, Cc1cccc(C(=O)Nc2nnc(C3=COCCO3)o2)c1 , and I need its recorded IC90.
Out: 3.36 µg/mL

In: I have this molecule here, C/C(=N\Nc1nc(=O)[nH]nc1C)c1ccccc1O , and I need its recorded IC90.
Out: < 0.2 µg/mL

In: I have this molecule here, COc1cc(/C=C(\C#N)c2nc(-c3ccccc3)cs2)cc([N+](=O)[O-])c1O , and I need its recorded IC90.
Out: 54.6 µg/mL

----------
Reported IC90 values follow for various compounds
Tested on: M. tuberculosis H37Rv growth inhibition
Assay: Mycobacterium tuberculosis H37Rv growth inhibition, putative kinase inhibitor library, confirmatory dose response (AID 2842);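 note: bacteria incubated one week before Alamar blue readout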

Example cases with answers are listed next.
COc1ccc(C(=O)Oc2cccc(Nc3ncnc4ccccc34)c2)cc1 ... 15.1 µg/mL
Cn1c(=O)c2c(nc(SCC(=O)c3ccccc3)n2Cc2ccc(F)cc2)n(C)c1=O ... 31.8 µg/mL
O=C1C(Cl)=C(Nc2ccccc2O)C(=O)N1Cc1ccccc1 ... 5.45 µg/mL
C(=N\n1cnnc1)/c1ccc(-n2nc(-c3ccccc3)cc2-c2ccccc2)cc1 ... 15.1 µg/mL
COc1ccc(-c2nnc3c4cc(OC)c(OC)cc4n(Cc4ccc(C)cc4)cc2-3)cc1 ... 95.4 µg/mL

In: Short answer please: IC90, M. tuberculosis H37Rv growth inhibition, entry CCC(=O)Nc1nnc(-c2ccc(Cl)s2)o1
Out: 8.62 µg/mL

In: Short answer please: IC90, M. tuberculosis H37Rv growth inhibition, entry COc1cccc2sc(Nc3nc4ccc(S(C)(=O)=O)cc4s3)nc12
Out: 20.2 µg/mL

In: Short answer please: IC90, M. tuberculosis H37Rv growth inhibition, entry Cc1ccc(N=C2NC(=O)C(Cc3ccccc3Cl)S2)cc1 (stereo unspecified)
Out: 25.4 µg/mL

----------
Test system: M. tuberculosis H37Rv growth inhibition
Assay: Mycobacterium tuberculosis H37Rv growth inhibition, putative kinase inhibitor library, confirmatory dose response (AID 2842);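 note: bacteria incubated one week before Alamar blue readout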
measure: IC90

Example cases with answers are listed next.
Cc1nnc2ccc(-c3cccc(NC(=O)COc4ccc(Cl)cc4)c3)nn12 ... 23.5 µg/mL
C=CCn1c(=NC(=O)c2ccc([N+](=O)[O-])s2)sc2cc(S(N)(=O)=O)ccc21 ... < 0.2 µg/mL
O=C(Nc1nnc(-c2ccco2)o1)c1ccccc1F ... 6.69 µg/mL
COc1ccccc1-c1nnc(NC(=O)CCc2ccccc2)o1 ... 6.99 µg/mL
O=C(Nc1nnc(-c2cccs2)o1)C1CCCCC1 ... 26.9 µg/mL
COc1ccc2nc(Nc3nc(-c4ccccn4)cs3)sc2c1 ... < 0.2 µg/mL
O=C(CSc1ncnc2c1oc1ccccc12)OCc1ccccc1 ... 12.1 µg/mL
COc1cccc(C(=O)Nc2nc3c(s2)CCc2ccccc2-3)c1 ... 11.3 µg/mL
COc1ccc2nc(Nc3sc4c(c3C(N)=O)CCC(C)C4)sc2c1 (stereo not given) ... 27.8 µg/mL
COc1ccccc1-c1nnc(NC(=O)c2ccc(-c3ccccc3)cc2)o1 ... 1.48 µg/mL

In: I have this molecule here, COc1ccc(C2CC(c3c(-c4ccccc4)c4cc(Br)ccc4[nH]c3=O)=NN2C(=O)c2ccccc2)cc1 (stereo not given) , and I need its recorded IC90.
Out: 1.07 µg/mL

In: I have this molecule here, COc1ccc(NC(=O)c2cccc3nc4ccccc4nc23)c(OC)c1 , and I need its recorded IC90.
Out: 4.07 µg/mL

In: I have this molecule here, Cc1ccc(C)c(-c2nnc(NC(=O)C(C)C)o2)c1 , and I need its recorded IC90.
Out: 6.62 µg/mL

In: I have this molecule here, O=C(Nc1nnc(-c2ccncc2)o1)c1cc(Cl)ccc1Cl , and I need its recorded IC90.
Out: 6.58 µg/mL

In: I have this molecule here, O=C(Nc1nnc(-c2cc(Cl)ccc2Cl)o1)C1CC1 , and I need its recorded IC90.
Out: 7.42 µg/mL

In: I have this molecule here, CSc1cccc2sc(Nc3ccc(Cl)cc3)nc12 , and I need its recorded IC90.
Out: 2.31 µg/mL

In: I have this molecule here, COc1cc(OC)cc(C(=O)N(CCCn2ccnc2)c2nc3cc(C)cc(C)c3s2)c1 , and I need its recorded IC90.
Out: 6.63 µg/mL

In: I have this molecule here, O=C(Nc1nnc(-c2cccs2)o1)c1ccc2c(c1)CCCC2 , and I need its recorded IC90.
Out: 37.6 µg/mL

In: I have this molecule here, O=C(CCSc1ccccc1)Nc1nc(-c2ccccn2)cs1 , and I need its recorded IC90.
Out: 21.8 µg/mL

In: I have this molecule here, O=C1C(Cl)=C(Nc2ccccc2O)C(=O)N1c1ccc(Cl)c(Cl)c1 , and I need its recorded IC90.
Out: 0.84 µg/mL

In: I have this molecule here, Cc1ccc(C)c(C(=O)Nc2nnc(-c3cc(C)ccc3C)o2)c1 , and I need its recorded IC90.
Out: 2.56 µg/mL

In: I have this molecule here, O=C1N/C(=N\N=C\c2ccccc2O)SC1Cc1ccc(Br)cc1 (stereo not given) , and I need its recorded IC90.
Out: 1.14 µg/mL

In: I have this molecule here, CCc1ccc(-c2nnc3c4cc5c(cc4n(Cc4ccc(OC)cc4)cc2-3)OCCO5)cc1 , and I need its recorded IC90.
Out: 5.37 µg/mL

In: I have this molecule here, Cc1ccc(N=Nc2c(C)[nH][nH]c2=O)cc1 , and I need its recorded IC90.
Out: 10.1 µg/mL

In: I have this molecule here, CC(=O)Nc1ccc2nc(Nc3nc4ccc(Cl)cc4s3)sc2c1 , and I need its recorded IC90.
Out: 8.93 µg/mL

In: I have this molecule here, Cc1cccc2sc(NNC(=O)c3cc4ccccc4oc3=O)nc12 , and I need its recorded IC90.
Out: 2.94 µg/mL

----------
Reported IC90 values follow for various compounds
System: M. tuberculosis H37Rv growth inhibition
Assay: Mycobacterium tuberculosis H37Rv growth inhibition, putative kinase inhibitor library, confirmatory dose response (AID 2842);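 note: bacteria incubated one week before Alamar blue readout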

Example cases with answers are listed next.
CC(C)C(=O)Nc1nnc(-c2cc(Cl)ccc2Cl)o1 ... 26.9 µg/mL
O=C(COc1ccc(Cl)cc1)N1CCN(c2ncnc3c2nnn3Cc2ccccc2)CC1 ... 6.75 µg/mL

In: I have this compound here, Fc1ccc(Nc2nc(Nc3cccc(F)c3)nc3nccnc23)cc1 , and I need its recorded IC90.
Out: 60.6 µg/mL

In: I have this compound here, Cc1ccc(-c2nnc(NC(=O)c3ccc([N+](=O)[O-])s3)o2)c(C)c1 , and I need its recorded IC90.
Out: 0.61 µg/mL

In: I have this compound here, O=C1c2cccc3cccc(c23)C(=O)N1CCc1ccc(S(=O)(=O)N2CCCCC2)cc1 , and I need its recorded IC90.
Out: 5.87 µg/mL

In: I have this compound here, Cc1ccc(C)c(C(=O)Nc2nnc(-c3ccc(C)c(C)c3)o2)c1 , and I need its recorded IC90.
Out: 2.66 µg/mL

In: I have this compound here, Cc1ccc2nc(NNC(=O)c3cc4ccccc4oc3=O)sc2c1 , and I need its recorded IC90.
Out: 1.75 µg/mL

In: I have this compound here, O=C(Nc1nnc(-c2ccco2)o1)c1ccc(Oc2ccccc2)cc1 , and I need its recorded IC90.
Out: < 0.2 µg/mL

In: I have this compound here, CCOC(=O)c1c(NC(=O)CCl)sc2c1CCCC2 , and I need its recorded IC90.
Out: 29.8 µg/mL

In: I have this compound here, COc1cccc(C(=O)Nc2nnc(C3=COCCO3)o2)c1 , and I need its recorded IC90.
Out: 4.85 µg/mL

In: I have this compound here, CCC(=O)Nc1nnc(-c2ccc(C)cc2C)o1 , and I need its recorded IC90.
Out: < 0.2 µg/mL

In: I have this compound here, Clc1ccc(Nc2ccc(NCc3ccccc3)nn2)cc1 , and I need its recorded IC90.
Out: 5.5 µg/mL

In: I have this compound here, Cc1cc(C)c(-c2csc(NC(=O)c3ccc4c(c3)OCCO4)n2)c(C)c1 , and I need its recorded IC90.
Out: 7.63 µg/mL

In: I have this compound here, Cn1c(/C(C#N)=C/c2c[nH]c3ccccc23)nc2ccccc21 , and I need its recorded IC90.
Out: 10.2 µg/mL
